Assay read-out pKi; system under study: JAK2 (Homo sapiens).
Sequence (O60674 whole entry): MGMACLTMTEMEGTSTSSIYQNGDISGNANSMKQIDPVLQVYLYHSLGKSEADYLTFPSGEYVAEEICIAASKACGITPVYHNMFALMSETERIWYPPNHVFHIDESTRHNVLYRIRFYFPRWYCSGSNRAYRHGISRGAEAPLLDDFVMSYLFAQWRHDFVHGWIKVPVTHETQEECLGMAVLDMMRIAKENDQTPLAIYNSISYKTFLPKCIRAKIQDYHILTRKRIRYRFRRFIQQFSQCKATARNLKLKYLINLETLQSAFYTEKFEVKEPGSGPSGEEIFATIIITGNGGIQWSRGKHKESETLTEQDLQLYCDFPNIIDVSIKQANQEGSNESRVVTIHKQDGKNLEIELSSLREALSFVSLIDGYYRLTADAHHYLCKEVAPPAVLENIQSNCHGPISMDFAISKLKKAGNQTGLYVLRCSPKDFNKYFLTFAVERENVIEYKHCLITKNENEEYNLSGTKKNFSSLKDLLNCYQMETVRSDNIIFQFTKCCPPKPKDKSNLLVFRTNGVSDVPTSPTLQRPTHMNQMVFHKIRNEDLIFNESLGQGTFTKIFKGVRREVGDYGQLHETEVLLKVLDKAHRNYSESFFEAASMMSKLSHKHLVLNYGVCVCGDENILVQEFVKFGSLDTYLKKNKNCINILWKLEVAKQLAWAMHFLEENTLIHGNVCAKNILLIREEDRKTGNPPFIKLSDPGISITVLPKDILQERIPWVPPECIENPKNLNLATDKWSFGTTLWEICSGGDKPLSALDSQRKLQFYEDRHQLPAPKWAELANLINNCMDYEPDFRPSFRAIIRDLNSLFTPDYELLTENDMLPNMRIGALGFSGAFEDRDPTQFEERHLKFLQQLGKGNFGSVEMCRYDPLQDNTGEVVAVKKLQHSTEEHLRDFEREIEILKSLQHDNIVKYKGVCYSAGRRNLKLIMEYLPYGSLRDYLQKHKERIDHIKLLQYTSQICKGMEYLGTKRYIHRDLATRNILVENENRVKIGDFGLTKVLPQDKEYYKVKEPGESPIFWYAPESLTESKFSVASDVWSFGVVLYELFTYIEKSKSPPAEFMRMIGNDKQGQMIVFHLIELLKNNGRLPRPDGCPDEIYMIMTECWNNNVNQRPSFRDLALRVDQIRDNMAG
pKi: −log10 of the molar value.

Some solved entries appear below for comparison.
{"columns": ["COMPOUND", "pKi"],
 "data": [
  ["O=C(Nc1nc(-c2ncnc3[nH]ccc23)cs1)C1CCCOC1 (stereo not shown)", "> 7.00"],
  ["O=C(Cc1ccccc1F)Nc1nc(-c2ncnc3[nH]ccc23)cs1", "> 7.00"],
  ["O=C(O)CC1(CC(=O)Nc2nc(-c3ncnc4[nH]ccc34)cs2)CCCC1", "6.30 to 7.00"]
]}

Attention now turns to another entry.
Query: Lab note: JAK2 (Homo sapiens) assay, enter pKi for O=C(O)C1CCCCC1C(=O)Nc1nc(-c2ncnc3[nH]ccc23)cs1 (stereo not shown) here
Reply: 6.30 to 7.00
